protocol_notes: Thermal decomposition temperature (TG/DTA, 2% weight reduction)
Format: physicochemical
measurement_setup: point of 2% weight reduction, 10° C./minute, nitrogen atmosphere
Protocol: The synthesized photoacid generator was measured for the change in weight under a temperature increasing condition of 10° C./minute from 30° C. to 500° C. under a nitrogen atmosphere using a thermal gravimetric/differential thermal analyzer (TG/DTA 6200, available from Seiko Instruments Inc.), and a point where the weight was reduced by 2% was defined as the thermal decomposition temperature.
attribute_measured: Thermal decomposition temperature
The answer consists of two parts: a number and, after it, its unit.

Would you please look over these solved cases?
- compound: "COc1ccc2cc(C(=O)N(C)OS(=O)(=O)CC34CCC(CC3=O)C4(C)C)ccc2c1 (stereo not drawn) [A-2]"
  Thermal decomposition temperature: "225 °C"
- compound: "COc1cc2c(OC)cccc2cc1C(=O)N(C)OS(=O)(=O)CC12CCC(CC1=O)C2(C)C (stereo not drawn) [A-3]"
  Thermal decomposition temperature: "225 °C"

Entry under test: CN(OS(=O)(=O)CC12CCC(CC1=O)C2(C)C)C(=O)c1ccc2ccccc2c1 (stereo not drawn) [A-1] . Its Thermal decomposition temperature was 230 °C

Entry under test: COc1ccc2cc(C(=O)N(C)OS(=O)(=O)CC34CCC(CC3=O)C4(C)C)c(=O)oc2c1 (stereo not drawn) [A-7] . Its Thermal decomposition temperature was 220 °C

Entry under test: CN(OS(=O)(=O)CC12CCC(CC1=O)C2(C)C)C(=O)c1c2ccccc2cc2ccccc12 (stereo not drawn) [A-8] . Its Thermal decomposition temperature was 240 °C

Entry under test: COc1cc2c(OC)cccc2cc1C(=O)N(C)OS(=O)(=O)c1c(F)c(F)c(F)c(F)c1F [A-5] . Its Thermal decomposition temperature was 225 °C

Entry under test: COc1cc2c(OC)cccc2cc1C(=O)N(C)OS(C)(=O)=O [A-4] . Its Thermal decomposition temperature was 225 °C

Entry under test: CC(=O)c1ccc(Sc2ccc(C(=O)N(C)OS(=O)(=O)CC34CCC(CC3=O)C4(C)C)cc2)cc1 (stereo not drawn) [A-6] . Its Thermal decomposition temperature was 210 °C

Entry under test: CC1(C)C2CCC1(CS(=O)(=O)OC1C(=O)c3cccc4cccc(c34)C1=O)C(=O)C2 (stereo not drawn) [A′-1, reference compound] . Its Thermal decomposition temperature was 225 °C

* * *

protocol_notes: Solvent solubility
Type: physicochemical
measurement_setup: toluene, 25° C.
attribute_measured: Solvent solubility, Toluene (wt %)
Report as a plain number; the unit wt % is understood.

Would you please look over these solved cases?
- compound: "COc1cc2c(OC)cccc2cc1C(=O)N(C)OS(=O)(=O)CC12CCC(CC1=O)C2(C)C (stereo not drawn)"
  Solvent solubility, Toluene [wt %]: 10
- compound: "CC(=O)c1ccc(Sc2ccc(C(=O)N(C)OS(=O)(=O)CC34CCC(CC3=O)C4(C)C)cc2)cc1 (stereo not drawn)"
  Solvent solubility, Toluene [wt %]: 10
- compound: "CN(OS(=O)(=O)CC12CCC(CC1=O)C2(C)C)C(=O)c1c2ccccc2cc2ccccc12 (stereo not drawn)"
  Solvent solubility, Toluene [wt %]: 10
- compound: "COc1ccc2cc(C(=O)N(C)OS(=O)(=O)CC34CCC(CC3=O)C4(C)C)ccc2c1 (stereo not drawn)"
  Solvent solubility, Toluene [wt %]: 10
- compound: "COc1cc2c(OC)cccc2cc1C(=O)N(C)OS(C)(=O)=O"
  Solvent solubility, Toluene [wt %]: 10

Entry under test: CC1(C)C2CCC1(CS(=O)(=O)OC1C(=O)c3cccc4cccc(c34)C1=O)C(=O)C2 (stereo not drawn) [A′-1, reference compound] . Its Solvent solubility, Toluene was 0.5

Entry under test: COc1ccc2cc(C(=O)N(C)OS(=O)(=O)CC34CCC(CC3=O)C4(C)C)c(=O)oc2c1 (stereo not drawn) . Its Solvent solubility, Toluene was 10

Entry under test: CN(OS(=O)(=O)CC12CCC(CC1=O)C2(C)C)C(=O)c1ccc2ccccc2c1 (stereo not drawn) . Its Solvent solubility, Toluene was 12

Entry under test: "COc1cc2c(OC)cccc2cc1C(=O)N(C)OS(=O)(=O)c1c(F)c(F)c(F)c(F)c1F" . Its Solvent solubility, Toluene was 10
